# measurement.target: PSMA (Homo sapiens, UniProt Q04609)
# Construct: endogenous in cells; host or cells: LNcap cells
# Sequence (Q04609 whole entry): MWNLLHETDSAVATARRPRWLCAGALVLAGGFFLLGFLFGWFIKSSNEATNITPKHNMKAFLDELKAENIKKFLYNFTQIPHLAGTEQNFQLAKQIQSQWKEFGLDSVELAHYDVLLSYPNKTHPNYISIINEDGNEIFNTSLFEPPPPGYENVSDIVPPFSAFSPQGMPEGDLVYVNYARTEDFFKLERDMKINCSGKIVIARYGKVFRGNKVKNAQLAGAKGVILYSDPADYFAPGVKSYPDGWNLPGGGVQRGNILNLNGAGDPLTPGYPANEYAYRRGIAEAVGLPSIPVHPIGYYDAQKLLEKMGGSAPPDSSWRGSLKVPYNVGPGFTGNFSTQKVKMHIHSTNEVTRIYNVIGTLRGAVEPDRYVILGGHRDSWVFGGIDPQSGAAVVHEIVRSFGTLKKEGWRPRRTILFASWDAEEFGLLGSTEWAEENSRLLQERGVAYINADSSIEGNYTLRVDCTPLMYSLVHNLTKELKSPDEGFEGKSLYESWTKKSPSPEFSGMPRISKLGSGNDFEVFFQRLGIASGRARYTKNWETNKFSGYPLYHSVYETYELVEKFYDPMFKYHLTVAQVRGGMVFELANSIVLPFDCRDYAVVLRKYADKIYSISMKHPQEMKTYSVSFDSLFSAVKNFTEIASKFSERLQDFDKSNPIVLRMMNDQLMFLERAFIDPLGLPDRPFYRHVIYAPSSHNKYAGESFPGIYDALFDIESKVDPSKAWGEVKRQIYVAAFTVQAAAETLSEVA
# assay.comment: Competition binding assay with 3H-ZJ24 on LNcap cells
# settings: 3H-ZJ24 12 nmol/L, 1 h at 37° C.
measurement.name: pIC50
Scale: pIC50 equals -log10([C]), with [C] in mol/L.

Ask: Would you mind telling me what pIC50 value was observed for CSC[C@H](NC(=O)N[C@@H](CCC(=O)O)C(=O)O)C(=O)O [ZJ24] ?
Reply: 8.01
